Test system: Danio rerio Tg(wt1b:EGFP) embryo, pronephros
test summary: fraction of imaged embryos annotated as normal kidney; higher = less nephrotoxic; extreme values may be limits of the assay
run conditions: 25 µM; exposure: 24-48 hpf
Counter-ions that a name gives are not always drawn.
measured parameter: fraction of imaged embryos annotated as normal kidney
Lab note: record the figure alone, no unit after it.

Write down the reported fraction of imaged embryos annotated as normal kidney of CCn1cc(C(=O)O)c(=O)c2cc(F)c(N3CCN(C)CC3)cc21 [Pefloxacine] , test system: Danio rerio Tg(wt1b:EGFP) embryo, pronephros. 1

New cases:
Reported fraction of imaged embryos annotated as normal kidney for Danio rerio Tg(wt1b:EGFP) embryo, pronephros, given CCN1CCC[C@H]1CNC(=O)c1c(OC)ccc(Br)c1OC [Remoxipride Hydrochloride] ? 0.917

Next up: CC(=O)N(CC(C)C(=O)O)c1c(I)cc(I)c(N)c1I (stereo not given) [Iocetamic acid] 0.917

Would you kindly repeat that for COc1ncnc(NS(=O)(=O)c2ccc(N)cc2)c1OC [Sulfadoxine] ? 0.833

====

Listed molecules paired with reported fraction of imaged embryos annotated as normal kidney
Tested on: Danio rerio Tg(wt1b:EGFP) embryo, pronephros
test summary: fraction of imaged embryos annotated as normal kidney; higher = less nephrotoxic; extreme values may be limits of the assay
run conditions: 25 µM; exposure: 24-48 hpf
Where a name gives a salt, the structure may show the parent alone.

Below, 2 molecules whose answers are already recorded.
Recorded fraction of imaged embryos annotated as normal kidney for COc1nc(N)nc2c1ncn2[C@@H]1O[C@H](CO)[C@@H](O)[C@@H]1O with Danio rerio Tg(wt1b:EGFP) embryo, pronephros, please? 0.727

Input COc1cc2nc(N3CCN(C(=O)C4COc5ccccc5O4)CC3)nc(N)c2cc1OC (stereo not drawn) [Doxazosin mesylate] 1

Continuing:
What measured fraction of imaged embryos annotated as normal kidney is associated with CC(=O)OC(C)C[N+](C)(C)C (stereo not drawn) [Methacholine chloride] on Danio rerio Tg(wt1b:EGFP) embryo, pronephros? 0.833

CN(Cc1cnc2nc(N)nc(N)c2n1)c1ccc(C(=O)N[C@@H](CCC(=O)O)C(=O)O)cc1 (racemic) [Amethopterin (R,S)] ? 0.75

And what about the molecule CN(C)c1cc(NC(=O)CNC(C)(C)C)c(O)c2c1C[C@H]1C[C@H]3[C@H](N(C)C)C(O)=C(C(N)=O)C(=O)[C@@]3(O)C(O)=C1C2=O ? 0.833

// repeat for Clc1ccccc1C(c1ccccc1)(c1ccccc1)n1ccnc1 and report 0.583

Same lookup for COC(=O)Nc1nc2cc(C(=O)c3ccc(F)cc3)ccc2[nH]1 , please. 0.833

Next molecule: C1N2CN3CN1CN(C2)C3 0.917

====

# Lookup of reported pronephric angle neck segment keyed by entry
Test system: Danio rerio Tg(wt1b:EGFP) embryo, pronephros
test summary: pronephric angle neck segment to proximal convoluted tubule (mean of left and right), fold change vs DMSO control; higher = larger pronephric angle
run conditions: 25 µM; exposure: 24-48 hpf

Recorded pronephric angle neck segment, per entry:
Find the measured pronephric angle neck segment: item CC(=O)CC(c1ccccc1)c1c(O)c2ccccc2oc1=O (stereo not given) , target or system Danio rerio Tg(wt1b:EGFP) embryo, pronephros. 1.25

Please give the result for C[C@H](N)[C@H](O)c1cccc(O)c1 [Metaraminol bitartrate] too. 0.771

Next compound up: CC(C)(Oc1ccc(CCNC(=O)c2ccc(Cl)cc2)cc1)C(=O)O [Bezafibrate] 0.966

Queued: CC(C)N1CCN(c2ccc(OCC3COC(Cn4cncn4)(c4ccc(Cl)cc4Cl)O3)cc2)CC1 (stereo not given) 0.948

More entries:
# value lookup — system Danio rerio Tg(wt1b:EGFP) embryo, pronephros, readout pronephric angle neck segment, item CN1CCC(=C2c3ccccc3CCc3sccc32)CC1 [Pizotifen malate] 1.06
